Quick reference for melting point among some molecules

(Q) Find the recorded melting point belonging to COc1ccc(CCN(C)CCCNc2c(Cl)cn[nH]c2=O)cc1OC and report it.
(A) 89 to 90 °C

---
(Q) Find the recorded melting point belonging to Cc1nccn1-c1nc(-c2ccc(Cl)cc2)c(CCCN2C(=O)CN(C)C2=O)o1 and report it.
(A) 105 to 106 °C

(Q) What about CC(=O)CCCn1c(C)nc2c(N)nc3ccccc3c21 ?
(A) 194 to 196 °C

(Q) What about O=C(c1ccc2nonc2c1)N1Cc2cccnc2Nc2ccccc21 ?
(A) 193 to 194 °C

----------
experimental-readout: melting point

Examples from the recorded data:
(Q) Find the recorded melting point belonging to C[C@@H](Nc1ncnc2[nH]c(-c3ccc(C(=O)O)cc3)cc12)c1ccccc1 and report it.
(A) > 350 °C

(Q) What about CCS(=O)(=O)Nc1cc(-n2nc3n(c2=O)CCS3)c(F)cc1C#N ?
(A) 209 to 211 °C

(Q) What about CCOC(=O)C1Cc2cc(-c3ccc(NC(C)=O)cc3)ccc2O1 (stereo unspecified) ?
(A) 164 to 166 °C

(Q) What about CCN(CC)C(=O)c1ncccc1OC(=S)N(CC)CC ?
(A) 70 to 72 °C

(Q) What about COc1ccc2cc(CC(=O)N3CC=C(c4cccc(C(F)(F)F)c4)CC3)ccc2c1 ?
(A) 102 to 105 °C

---
(Q) Find the recorded melting point belonging to CC(C)Cn1c(CC(C)O)nc2c(N)nc3ccccc3c21 (stereo unspecified) and report it.
(A) 196 to 198 °C
